Hello, the source for this data is PubChem BioAssay AID449762, in case you need it.

- measurementNotes: M. tuberculosis growth inhibition, HTS (AID 449762);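 also: bacterial growth assessed after seven days of incubation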
- protocolConditions: M. tuberculosis H37Rv growth inhibition, 7H9 media; at 25 µM; stronger effect = higher value
Hit rate of the full screen: of about 330,000 compounds, about 1,900 (0.58%) were called active. Roughly 4% stayed inconclusive and do not appear here. Only a sample is shown. Entries with a potency or affinity are not part of this list.
measuredEndpoint: inhibition (%)
Give the number; % is assumed, so skip it.

Which inhibition reading was recorded for the compound `COc1ccc(NC(=O)c2c3c(nc4ccccc24)CCC3)cc1` ?
2.33

Which inhibition reading was recorded for the compound `COc1ccc(CN2CCn3ncc(C(=O)Nc4cccc(C)c4)c3C2=O)cc1` ?
3.51

Which inhibition reading was recorded for the compound COc1ccc2[nH]c(=O)c(CN(CC3CCCO3)S(=O)(=O)c3ccccc3)cc2c1 (stereo not drawn) ?
2.57

Which inhibition reading was recorded for the compound `COc1ccc(NS(=O)(=O)c2ccc3nc(COc4ccc5ccccc5c4)[nH]c3c2)cc1` ?
0.01

Which inhibition reading was recorded for the compound `CC(C)C(=O)Nc1ncc(Cc2ccccc2Cl)s1` ?
-0.61

Which inhibition reading was recorded for the compound `N#CCCN(C(=O)COC(=O)Cc1c[nH]c2ccccc12)c1ccccc1` ?
1.58

Which inhibition reading was recorded for the compound `CCOC(=O)C1CCN(S(=O)(=O)c2ccc(-c3cc(C(F)(F)F)n(C)n3)s2)CC1` ?
-4.16

Which inhibition reading was recorded for the compound `COCC(=O)NC1(c2nnnn2CCOC(=O)Nc2ccc(Cl)cc2)CCCCC1` ?
-9.42

Which inhibition reading was recorded for the compound `Cc1ccc(-c2oc3ccccc3c(=O)c2O)cc1` ?
27.6

Which inhibition reading was recorded for the compound `COc1ccc(NC(=O)c2nnn(CC(=O)Nc3ccccc3OC)c2N)c(OC)c1` ?
-1.76

Which inhibition reading was recorded for the compound `O=C(Nc1cccn2ncnc12)C(Cl)Cl` ?
8.05

Which inhibition reading was recorded for the compound COc1ccc(OC2C(=O)N(Cc3ccc(F)cc3)C2c2cc(OC)c(OC)c(OC)c2)cc1 (stereo not drawn) ?
20.5

Which inhibition reading was recorded for the compound `Cc1ccc(S(=O)(=O)N2CCN(Cc3nc4ccccc4n3C)CC2)cc1` ?
-10.2
